- MEASUREMENT TARGET: T1, EGFI-Cr1 R44G (human, UniProt P16422 24-63)
- T1 construct: not shown: the constant region of human immunoglobulin gamma 1 heavy chain (Cr1) fused at the C-terminus
- T1 chain: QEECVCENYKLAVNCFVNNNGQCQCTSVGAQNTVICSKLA
- PROTOCOL SUMMARY: direct ELISA, coated EGFI-Cr1 fusion, 0.1 µg/ml antibody
Each entry below carries its reported relative binding activity (% of WT).
Just the number please, in %, no unit attached.

Before answering, review these 2 worked examples.
BINDER	UNIT ANNOTATION	relative binding activity (% of WT)
murine monoclonal antibody 4D2 (antibody, mouse IgG1, V domains shown, Mouse IgG1, kappa, from hybridoma; also called m338-4D2.20) VH: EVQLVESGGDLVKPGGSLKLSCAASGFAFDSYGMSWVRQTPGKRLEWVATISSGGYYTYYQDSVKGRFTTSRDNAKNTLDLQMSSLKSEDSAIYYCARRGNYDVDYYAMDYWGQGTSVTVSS VL: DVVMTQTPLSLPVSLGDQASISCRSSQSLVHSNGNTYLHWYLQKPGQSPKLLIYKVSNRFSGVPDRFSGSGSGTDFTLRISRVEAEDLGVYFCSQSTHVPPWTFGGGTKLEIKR	%	1
murine monoclonal antibody 12H8 (antibody, mouse IgG2a, V domains shown, Mouse IgG2a, kappa, from hybridoma; also called m342-12H8.3; m12H8) VH: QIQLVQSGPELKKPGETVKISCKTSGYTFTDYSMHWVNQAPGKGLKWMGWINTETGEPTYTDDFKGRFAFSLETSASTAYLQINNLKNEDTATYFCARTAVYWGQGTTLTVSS VL: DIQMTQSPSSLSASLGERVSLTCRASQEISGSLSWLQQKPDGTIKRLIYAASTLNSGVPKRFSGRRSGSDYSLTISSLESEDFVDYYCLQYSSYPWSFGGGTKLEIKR	%	91

Request the reported relative binding activity (% of WT) associated with murine monoclonal antibody 2D11 (antibody, mouse IgG1, V domains shown, Mouse IgG1, kappa, from hybridoma; also called m322-2D11.19) VH: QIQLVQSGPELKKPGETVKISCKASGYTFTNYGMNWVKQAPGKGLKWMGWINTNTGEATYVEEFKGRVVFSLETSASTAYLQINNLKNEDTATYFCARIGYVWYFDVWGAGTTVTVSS VL: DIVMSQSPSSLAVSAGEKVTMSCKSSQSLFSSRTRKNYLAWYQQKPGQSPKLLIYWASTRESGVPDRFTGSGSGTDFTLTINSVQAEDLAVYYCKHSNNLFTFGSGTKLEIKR
7
